meta.source: patent US5015661A

measured-target: Δ^5 -lipoxygenase from rat basophilic leukemia (RBL-1) cells (Rattus norvegicus, UniProt P12527)
Construct: endogenous in cells; 113,000×g supernatant (cytosolic fraction)
Sequence (P12527 1-673): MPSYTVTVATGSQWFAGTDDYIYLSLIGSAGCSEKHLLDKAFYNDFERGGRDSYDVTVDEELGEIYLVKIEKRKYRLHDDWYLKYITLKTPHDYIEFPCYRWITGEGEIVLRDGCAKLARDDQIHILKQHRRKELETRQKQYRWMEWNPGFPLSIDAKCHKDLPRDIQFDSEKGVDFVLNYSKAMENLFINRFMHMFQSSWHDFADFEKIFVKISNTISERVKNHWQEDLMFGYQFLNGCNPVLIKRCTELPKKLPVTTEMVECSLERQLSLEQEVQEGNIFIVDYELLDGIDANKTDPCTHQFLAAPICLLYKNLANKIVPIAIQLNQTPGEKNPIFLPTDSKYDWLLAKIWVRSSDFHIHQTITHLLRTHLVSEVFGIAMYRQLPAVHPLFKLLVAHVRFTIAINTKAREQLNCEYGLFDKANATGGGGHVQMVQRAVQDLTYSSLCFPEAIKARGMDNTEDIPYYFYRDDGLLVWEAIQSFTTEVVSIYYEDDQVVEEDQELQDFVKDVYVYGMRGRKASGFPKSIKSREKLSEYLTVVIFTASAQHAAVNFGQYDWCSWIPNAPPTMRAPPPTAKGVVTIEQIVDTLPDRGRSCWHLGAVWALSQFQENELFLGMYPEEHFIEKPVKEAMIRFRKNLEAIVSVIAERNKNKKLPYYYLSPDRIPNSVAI
experiment-summary: In vitro test for Δ^5 -lipoxygenase inhibitors (5-LO), RBL-1 cell enzyme, 5-HETE radioimmunoassay
reported-conditions: RBL-1 5-LO; 10 min preincubation; 8.25 μM arachidonic acid, 10 min at 37° C.; 5-HETE formation; read-out: 5-LO IC-50
pIC50: −log10 of the molar value.
endpoint-name: pIC50

P: COc1cc(C=O)cc2cc(C3(C)CCc4c(C)c(O)c(C)c(C)c4O3)oc12 (racemic)
Q: COc1cc(C=NO)cc(C#CC2(C)CCc3c(C)c(O)c(C)c(C)c3O2)c1O (racemic)
R: COc1cc(CO)cc2cc(C3(C)CCc4c(C)c(O)c(C)c(C)c4O3)oc12 (racemic)
S: Cc1c(C)c2c(c(C)c1O)CC[C@@](C)(C#Cc1cccs1)O2
Task: Which order do these items fall in when sorted by pIC50 from largest to smallest? To answer, write out the labels according to the requested order.
Result: P, R, S, Q
(P: 9.00, R: 8.52, S: 7.77, Q: 6.80)

---

measured-target: superoxide-dependent, iron-promoted lipid peroxidation of native rat heart cardiac lipid liposomes
experiment-summary: Lipid peroxidation inhibition (in vitro testing of antiperoxidative agents, ANTI-OX), hypoxanthine-xanthine oxidase-Fe3+.ADP, rat cardiac liposomes, MDA equivalents
reported-conditions: 60 min, 37° C., screened at 1.0 μM, IC50 determined if inhibition ≥ 50%, read-out: ANTI-OX IC-50
pIC50: −log10 of the molar value.
endpoint-name: pIC50

- molecule: "Cc1c(C)c2c(c(C)c1O)CCC(C)(C#Cc1ccc(-c3cccnc3)cc1)O2 (racemic)"
  pIC50: 6.10
- molecule: "Cc1c(C)c2c(c(C)c1O)CCC(C)(C#Cc1csc3ccccc13)O2 (racemic)"
  pIC50: 6.25
- molecule: "Cc1c(C)c2c(c(C)c1O)CCC(C)(C#Cc1cnc3ccccc3c1)O2 (racemic)"
  pIC50: 6.07
- molecule: "Cc1c(C)c2c(c(C)c1O)CCC(C)(C#Cc1ccc(-c3ccccn3)s1)O2 (racemic)"
  pIC50: 6.26

---

Consider the following compounds and their measured IC50 readings.
measured-target: superoxide-dependent, iron-promoted lipid peroxidation of native rat heart cardiac lipid liposomes
experiment-summary: Lipid peroxidation inhibition (in vitro testing of antiperoxidative agents, ANTI-OX), hypoxanthine-xanthine oxidase-Fe3+.ADP, rat cardiac liposomes, MDA equivalents
reported-conditions: 60 min, 37° C., screened at 1.0 μM, IC50 determined if inhibition ≥ 50%, read-out: ANTI-OX IC-50

Task: Please give the measured IC50 for this compound: CCCc1cc(C#CC2(C)CCc3c(C)c(O)c(C)c(C)c3O2)ccc1O (racemic)
Result: > 1000 nM

Task: Please give the measured IC50 for this compound: Cc1c(C)c2c(c(C)c1O)CCC(C)(CCc1cccs1)O2 (racemic)
Result: > 1000 nM

---

Consider the following compounds and their measured IC50 readings.
measured-target: superoxide-dependent, iron-promoted lipid peroxidation of native rat heart cardiac lipid liposomes
experiment-summary: Lipid peroxidation inhibition (in vitro testing of antiperoxidative agents, ANTI-OX), hypoxanthine-xanthine oxidase-Fe3+.ADP, rat cardiac liposomes, MDA equivalents
reported-conditions: 60 min, 37° C., screened at 1.0 μM, IC50 determined if inhibition ≥ 50%, read-out: ANTI-OX IC-50

Here is how some compounds turned out for IC50.
- compound: "Cc1c(C)c2c(c(C)c1O)CCC(C)(CCc1ccc(-c3cccnc3)cc1)O2 (racemic)"
  IC50: "> 1000 nM"
- compound: "Cc1c(C)c2c(c(C)c1O)CCC(C)(C#Cc1ccccn1)O2 (racemic)"
  IC50: "> 1000 nM"
- compound: "COc1cc(CO)cc(C#CC2(C)CCc3c(C)c(O)c(C)c(C)c3O2)c1O (racemic)"
  IC50: "> 1000 nM"
- compound: "Cc1c(C)c2c(c(C)c1O)CCC(C)(C#Cc1ccc(F)c(F)c1)O2 (racemic)"
  IC50: "> 1000 nM"
- compound: "Cc1c(C)c2c(c(C)c1O)CCC(C)(CCc1ccccn1)O2 (racemic)"
  IC50: "700 nM"

Task: Please give the measured IC50 for this compound: Cc1c(C)c2c(c(C)c1O)CCC(C)(C#Cc1cncc3ccccc13)O2 (racemic)
Result: > 1000 nM

Task: Please give the measured IC50 for this compound: Cc1c(C)c2c(c(C)c1O)CCC(C)(C#Cc1cccc(C(F)(F)F)c1)O2 (racemic)
Result: 800 nM

Task: Please give the measured IC50 for this compound: Cc1c(C)c2c(c(C)c1O)CCC(C)(CCc1ccc(-c3ccccn3)s1)O2 (racemic)
Result: > 1000 nM

Task: Please give the measured IC50 for this compound: Cc1c(C)c2c(c(C)c1O)CCC(C)(c1cc3ccccc3o1)O2 (racemic)
Result: 1000 nM

---

Consider the following compounds and their measured IC50 readings.
measured-target: superoxide-dependent, iron-promoted lipid peroxidation of native rat heart cardiac lipid liposomes
experiment-summary: Lipid peroxidation inhibition (in vitro testing of antiperoxidative agents, ANTI-OX), hypoxanthine-xanthine oxidase-Fe3+.ADP, rat cardiac liposomes, MDA equivalents
reported-conditions: 60 min, 37° C., screened at 1.0 μM, IC50 determined if inhibition ≥ 50%, read-out: ANTI-OX IC-50
Description: The test system employs hypoxanthine-xanthine oxidase (XO)-Fe^3+. ADP as the free radical generator and purified, native rat-heart membrane phosphoglyceride in Hepes-KCl buffer, pH 7.4, as the substrate. Inhibition of superoxide-dependent, iron-promoted lipid peroxidation in the linear reaction phase (after 1 hour of reaction) is measured as the net formation of thiobarbituric acid (TBA)-reactive material. […]

Task: Please give the measured IC50 for this compound: CCCCc1ccc(CCC2(C)CCc3c(C)c(O)c(C)c(C)c3O2)s1 (racemic) [Example 66]
Result: > 1000 nM

Task: Please give the measured IC50 for this compound: Cc1ccc2oc(C3(C)CCc4c(C)c(O)c(C)c(C)c4O3)cc2n1 (racemic) [Example 51]
Result: > 1000 nM

Task: Please give the measured IC50 for this compound: COc1cccc(C#CC2(C)CCc3c(C)c(O)c(C)c(C)c3O2)c1 (racemic) [Example 22]
Result: > 1000 nM

---

measured-target: Δ^5 -lipoxygenase from rat basophilic leukemia (RBL-1) cells (Rattus norvegicus)
Construct: endogenous in cells; host or cells: RBL-1 rat basophilic leukemia cells (ATCC CRL 1378); 113,000×g supernatant (cytosolic fraction)
experiment-summary: In vitro test for Δ^5 -lipoxygenase inhibitors (5-LO), RBL-1 cell enzyme, 5-HETE radioimmunoassay
Format: biochemical
reported-conditions: RBL-1 5-LO; 10 min preincubation; 8.25 μM arachidonic acid, 10 min at 37° C.; 5-HETE formation; read-out: 5-LO IC-50
pIC50: −log10 of the molar value. Structures can show the parent of a compound that is named as a salt.
endpoint-name: pIC50

- compound: "Cc1c(C)c2c(c(C)c1O)CC[C@](C)(C#Cc1cccs1)O2 [Example 5]"
  measured-target: "Δ^5 -lipoxygenase from rat basophilic leukemia (RBL-1) cells (Rattus norvegicus)"
  numeric-result: 7.82
- compound: "CC(=O)Oc1cc(C#CC2(C)CCc3c(C)c(O)c(C)c(C)c3O2)ccc1OCc1ccccc1 (racemic) [Example 41]"
  measured-target: "Δ^5 -lipoxygenase from rat basophilic leukemia (RBL-1) cells (Rattus norvegicus)"
  numeric-result: 7.49
- compound: "Cc1c(C)c2c(c(C)c1O)CCC(C)(C#Cc1ccc3c(c1)NCCO3)O2 (racemic) [Example 47, hydrochloride]"
  measured-target: "Δ^5 -lipoxygenase from rat basophilic leukemia (RBL-1) cells (Rattus norvegicus)"
  numeric-result: 7.74
- compound: "CCCCc1ccc(CCC2(C)CCc3c(C)c(O)c(C)c(C)c3O2)s1 (racemic) [Example 66]"
  measured-target: "Δ^5 -lipoxygenase from rat basophilic leukemia (RBL-1) cells (Rattus norvegicus)"
  numeric-result: 6.85

1: Cc1c(C)c2c(c(C)c1O)CCC(C)(C#Cc1cncc3ccccc13)O2 (racemic) [Example 34]
2: Cc1c(C)c2c(c(C)c1O)CCC(C)(C#Cc1ccc(F)c(F)c1)O2 (racemic) [Example 36]
Task: Lab note: record which item had the higher pIC50, 1 or 2 . Output the label that corresponds to your choice.
Result: 2
